The measurements presented in this section are drawn from patent US6399634B1.

Catalogue of Uterine Weight (% increase vs. OVX) values
system: ovariectomized (OVX) rats; assay: Uterine wet weight in ovariectomized rat post-menopausal model, 4 days of dosing; format: in vivo, Sprague Dawley rats; conditions: oral, daily for 4 days, dose 0.1 mg/kg
Where a name gives a salt, the structure may show the parent alone.

| molecule | Uterine Weight (% increase vs. OVX) (%) |
| --- | --- |
| Oc1ccc(-c2sc3cc(O)ccc3c2C(O)c2ccc(OCCN3CCCCC3)cc2)cc1 (stereo not drawn) | 52.2 |
| COc1ccc(-c2sc3cc(OC)ccc3c2Cc2ccc(OCCN3CCCCC3)cc2)cc1 [(p)-Ex16, Hydrochloride] | −13.5 |
| CC(C)(C)C(=O)Oc1ccc(-c2sc3cc(OC(=O)C(C)(C)C)ccc3c2Cc2ccc(OCCN3CCCCC3)cc2)cc1 [(q)-Ex17, Hydrochloride] | −22.7 |
| Oc1ccc(-c2sc3cc(O)ccc3c2Cc2ccc(OCCN3CCCCC3)cc2)cc1 [(k)-Ex11, Hydrochloride] | 4.0 |
| O=C(Oc1ccc(-c2sc3cc(OC(=O)c4ccccc4)ccc3c2Cc2ccc(OCCN3CCCCC3)cc2)cc1)c1ccccc1 [(s)-Ex21] | −19.6 |
| CCCCS(=O)(=O)Oc1ccc(-c2sc3cc(OS(=O)(=O)CCCC)ccc3c2Cc2ccc(OCCN3CCCCC3)cc2)cc1 [(r)-Ex18, Hydrochloride] | −16.6 |

---

system: ovariectomized (OVX) rats; test: Uterine wet weight in ovariectomized rat post-menopausal model, 4 days of dosing; assay type: in vivo, Sprague Dawley rats; details: oral, daily for 4 days, dose 1.0 mg/kg
Counter-ions that a name gives are not always drawn.

| molecule | target | Uterine Weight (% increase vs. OVX) |
| --- | --- | --- |
| CCCCS(=O)(=O)Oc1ccc(-c2sc3cc(OS(=O)(=O)CCCC)ccc3c2Cc2ccc(OCCN3CCCCC3)cc2)cc1 [(r)-Ex18, Hydrochloride] | ovariectomized (OVX) rats | −18.4% |
| O=C(Oc1ccc(-c2sc3cc(OC(=O)c4ccccc4)ccc3c2Cc2ccc(OCCN3CCCCC3)cc2)cc1)c1ccccc1 [(s)-Ex21] | ovariectomized (OVX) rats | −28.7% |
| COc1ccc(-c2sc3cc(OC)ccc3c2Cc2ccc(OCCN3CCCCC3)cc2)cc1 [(p)-Ex16, Hydrochloride] | ovariectomized (OVX) rats | −13.7% |
| Oc1ccc(-c2sc3cc(O)ccc3c2Cc2ccc(OCCN3CCCCC3)cc2)cc1 [(k)-Ex11, Hydrochloride] | ovariectomized (OVX) rats | 23.1% |
| Oc1ccc(-c2sc3cc(O)ccc3c2C(O)c2ccc(OCCN3CCCCC3)cc2)cc1 (stereo not drawn) [(b)-Ex2] | ovariectomized (OVX) rats | 39.1% |
| CC(C)(C)C(=O)Oc1ccc(-c2sc3cc(OC(=O)C(C)(C)C)ccc3c2Cc2ccc(OCCN3CCCCC3)cc2)cc1 [(q)-Ex17, Hydrochloride] | ovariectomized (OVX) rats | −32.4% |

---

Catalogue of Uterine Weight (% increase vs. OVX) values
tested on: ovariectomized (OVX) rats; test: Uterine wet weight in ovariectomized rat post-menopausal model, 4 days of dosing; assay type: in vivo, Sprague Dawley rats; settings: oral, daily for 4 days, dose 10.0 mg/kg
Counter-ions that a name gives are not always drawn.

| compound | quantityUnit | Uterine Weight (% increase vs. OVX) |
| --- | --- | --- |
| CCCCS(=O)(=O)Oc1ccc(-c2sc3cc(OS(=O)(=O)CCCC)ccc3c2Cc2ccc(OCCN3CCCCC3)cc2)cc1 [(r)-Ex18, Hydrochloride] | % | −19.5 |
| COc1ccc(-c2sc3cc(OC)ccc3c2Cc2ccc(OCCN3CCCCC3)cc2)cc1 [(p)-Ex16, Hydrochloride] | % | −24.6 |
| CC(C)(C)C(=O)Oc1ccc(-c2sc3cc(OC(=O)C(C)(C)C)ccc3c2Cc2ccc(OCCN3CCCCC3)cc2)cc1 [(q)-Ex17, Hydrochloride] | % | −25.2 |
| O=C(Oc1ccc(-c2sc3cc(OC(=O)c4ccccc4)ccc3c2Cc2ccc(OCCN3CCCCC3)cc2)cc1)c1ccccc1 [(s)-Ex21] | % | −26.6 |
| Oc1ccc(-c2sc3cc(O)ccc3c2C(O)c2ccc(OCCN3CCCCC3)cc2)cc1 (stereo not drawn) | % | 45.6 |
| Oc1ccc(-c2sc3cc(O)ccc3c2Cc2ccc(OCCN3CCCCC3)cc2)cc1 [(k)-Ex11, Hydrochloride] | % | 5.2 |
